This section presents compounds with their documented CC50 values.
assay: in vitro; settings: Chlorocebus sabaeus (African green monkey)
RECORDED_ENDPOINT: CC50

> print(dat)
                                    compound  recorded.endpoint  reported.value
 1  Cc1c(O)cccc1C(=O)N[C@@H](CSc1ccccc1)[C@H](O)CN1C[C@H]2CCCC[C@H]2C[C@H]1C(=O)NC(C)(C)C [[…]]               CC50         > 33 µM
 2  Cc1[nH]c(/C=C2\C(=O)Nc3ccc(S(=O)(=O)Cc4c(Cl)cccc4Cl)cc32)c(C)c1C(=O)N1CCC[C@@H]1CN1CCCC1               CC50         > 33 µM
 3  C[C@@H]1C[C@@H]([C@H](O)CC2CC(=O)NC(=O)C2)C(=O)[C@@H](C)C1 [Cycloheximide]               CC50         10.2 µM
 4               Nc1cc2c3ccccc3ccc2c2ccccc12               CC50         > 33 µM
 5  COc1cc2c(N3CCN(C(=O)Nc4ccc(OC(C)C)cc4)CC3)ncnc2cc1OCCCN1CCCCC1               CC50         > 33 µM
 6  Nc1nc2c(ncn2[C@@H]2O[C@H](CO)[C@@H](O)[C@H]2O)c(=S)[nH]1               CC50         > 33 µM
 7                  Nc1nc2nn[nH]c2c(=O)[nH]1               CC50         10.4 µM
 8  CC(=O)[C@]1(N)Cc2c(O)c3c(c(O)c2[C@@H](O[C@H]2C[C@H](O)[C@H](O)CO2)C1)C(=O)c1ccccc1C3=O               CC50         > 33 µM
 9  CC(C)(O)CNc1ncc(-c2ccnc(Nc3ccnc(Cl)c3)n2)c(CC2CC2)n1               CC50         26.8 µM
10  Cc1cc(O)c2c(=O)c3c(O)cc(O)c4c5c(O)cc(O)c6c(=O)c7c(O)cc(C)c8c1c2c(c34)c(c78)c65               CC50         1.31 µM

* * *

Measured CC50 at 4 days, listed per entry.
test: in vitro; settings: Chlorocebus sabaeus (African green monkey)
RECORDED_ENDPOINT: CC50 at 4 days (µM)

> print(dat)
                                   compound  readout.relation  reported.value
1  CC(C)(C)NCc1ccc(Nc2ccnc3cc(Cl)ccc23)cc1O                 =            12.4
2  Cc1cc(O[C@@H](CCC(F)(F)F)c2ccc(C(=O)NCCC(=O)O)cc2)cc(C)c1-c1ccc(C(C)(C)C)cc1                 >              33
3  COc1ccc2c(c1)[C@]1(C[C@H]1c1ccc3c(/C=C/c4ccc(CN5C[C@@H](C)O[C@@H](C)C5)cc4)n[nH]c3c1)C(=O)N2                 >              33
4  CN1CCN(C2CCN(C(=O)Nc3cc(Oc4ccc(NC(=O)C5(C(=O)Nc6ccc(F)cc6)CC5)c(F)c4)ccn3)CC2)CC1 [Golvatinib (E7050), Golvatinib]                 >              33
5  CNCc1ccc(-c2cc(-c3nc(-c4ccc(S(=O)(=O)C(C)C)cc4)cnc3N)on2)cc1                 =              10

Provenance of the data: paper PMC9279437
